- measured-on: KRAS G12C (Homo sapiens, UniProt P01116, G12C)
- method-notes: KRAS G12C cellular target engagement assay (SW1573 cells)
- run-conditions: 17 hours, read-out: TE50 (the source's name)
- Sequence (P01116 1-188 isoform P01116-2 G12C): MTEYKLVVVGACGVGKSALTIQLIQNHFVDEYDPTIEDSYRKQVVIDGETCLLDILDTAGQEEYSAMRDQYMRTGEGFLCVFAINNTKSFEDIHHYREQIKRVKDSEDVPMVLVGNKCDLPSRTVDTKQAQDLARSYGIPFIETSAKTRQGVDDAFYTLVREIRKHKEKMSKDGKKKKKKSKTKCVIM
Items are presented alongside their recorded EC50.

{"columns": ["molecule", "EC50"],
 "data": [
  ["C=C(COc1cc(Cl)cc(NC(=O)NCc2ccc3c(c2F)CN(C2CCC(=O)NC2=O)C3=O)c1)C(=O)N1CCN(c2nc(OC[C@@H]3CCCN3C)nc3c2CCN(c2cccc4cccc(Cl)c24)C3)C[C@@H]1CC#N (stereo partly drawn)", "< 250 nM"],
  ["C=C(COc1cc(NC(=O)NCc2ccc3c(c2F)CN(C2CCC(=O)NC2=O)C3=O)cc(C(F)(F)F)c1)C(=O)N1CC2(CC(n3nc(-c4ccc5c(cnn5C)c4)c(-c4c(Cl)c(C)cc5[nH]ncc45)c3C)C2)C1 (stereo not drawn)", "250 to 5000 nM"],
  ["C=C(COc1ccccc1CNC(=O)NCc1ccc2c(c1)CN(C1CCC(=O)NC1=O)C2=O)C(=O)N1CCN(c2nc(OC[C@@H]3CCCN3C)nc3c2CCN(c2cccc4cccc(Cl)c24)C3)C[C@@H]1CC#N (stereo partly drawn)", "250 to 5000 nM"],
  ["C=C(CN1CCN(c2nc(NCc3nc4cc(C)ccc4[nH]3)n3ncc(Br)c3n2)CC1)C(=O)N1CCN(c2nc(OC[C@@H]3CCCN3C)nc3c2CCN(c2cccc4cccc(Cl)c24)C3)C[C@@H]1CC#N", "250 to 5000 nM"],
  ["C=C(COc1cc(Cl)c(OC)cc1NC(=O)NCc1ccc2c(c1)CN(C1CCC(=O)NC1=O)C2=O)C(=O)N1CC2(CC(n3nc(-c4ccc5c(cnn5C)c4)c(-c4c(Cl)c(C)cc5[nH]ncc45)c3C)C2)C1 (stereo not drawn)", "250 to 5000 nM"],
  ["C=C(COc1ccc(CN2C(=O)CCC(N3Cc4cc(CNC(=O)Nc5ccc(C)c(Cl)c5)ccc4C3=O)C2=O)cc1)C(=O)N1CCN(c2nc(OC[C@H]3CCCN3C)nc3c2CCN(c2cccc4cccc(Cl)c24)C3)C[C@@H]1CC#N (stereo in doubt)", "250 to 5000 nM"],
  ["C=C(CN(C)c1cccc(NC(=O)NCc2ccc3c(c2)CN(C2CCC(=O)NC2=O)C3=O)c1)C(=O)N1CCN(c2nc(OC[C@@H]3CCCN3C)nc3c2CCN(c2cccc4cccc(Cl)c24)C3)C[C@@H]1CC#N (stereo partly drawn)", "5000 to 10000 nM"],
  ["C=C(COc1ccccc1NC(=O)NCc1ccc2c(c1)CN(C1CCC(=O)NC1=O)C2=O)C(=O)N1CCN(c2nc(OC[C@H]3CCCN3C)nc3c2CCN(c2cccc4cccc(Cl)c24)C3)C[C@H]1CC#N (stereo partly drawn)", "< 250 nM"],
  ["C=C(COc1cc(Cl)cc(NC(=O)NCc2ccc3c(c2)CN(C2CCC(=O)NC2=O)C3=O)c1)C(=O)N1CCN(c2nc(OC[C@@H]3CCCN3C)nc3c2CCN(c2cccc4cccc(Cl)c24)C3)C[C@@H]1CC#N (stereo partly drawn)", "250 to 5000 nM"]
]}

====

Each item that follows carries a reported DC50.
- measured-on: GSPT1 (Homo sapiens, UniProt P15170+Q96SW2)
- Construct: host or cells: HEK293 LgBiT / GSPT1 HiBiT CRISPR knock-in
- Sequence (P15170 whole entry): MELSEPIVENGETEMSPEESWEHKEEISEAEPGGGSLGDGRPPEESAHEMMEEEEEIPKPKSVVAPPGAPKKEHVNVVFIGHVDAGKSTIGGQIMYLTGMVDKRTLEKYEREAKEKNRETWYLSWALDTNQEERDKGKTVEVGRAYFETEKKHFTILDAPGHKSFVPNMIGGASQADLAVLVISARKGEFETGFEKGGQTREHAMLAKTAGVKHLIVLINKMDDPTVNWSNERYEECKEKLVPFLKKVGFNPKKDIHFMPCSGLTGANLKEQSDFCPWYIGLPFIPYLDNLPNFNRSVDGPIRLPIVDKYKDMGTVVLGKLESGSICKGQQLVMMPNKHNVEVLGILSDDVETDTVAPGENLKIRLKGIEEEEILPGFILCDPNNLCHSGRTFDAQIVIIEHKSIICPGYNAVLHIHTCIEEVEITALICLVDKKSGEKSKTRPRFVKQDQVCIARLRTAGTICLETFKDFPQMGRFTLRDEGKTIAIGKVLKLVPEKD
- Sequence (Q96SW2 whole entry): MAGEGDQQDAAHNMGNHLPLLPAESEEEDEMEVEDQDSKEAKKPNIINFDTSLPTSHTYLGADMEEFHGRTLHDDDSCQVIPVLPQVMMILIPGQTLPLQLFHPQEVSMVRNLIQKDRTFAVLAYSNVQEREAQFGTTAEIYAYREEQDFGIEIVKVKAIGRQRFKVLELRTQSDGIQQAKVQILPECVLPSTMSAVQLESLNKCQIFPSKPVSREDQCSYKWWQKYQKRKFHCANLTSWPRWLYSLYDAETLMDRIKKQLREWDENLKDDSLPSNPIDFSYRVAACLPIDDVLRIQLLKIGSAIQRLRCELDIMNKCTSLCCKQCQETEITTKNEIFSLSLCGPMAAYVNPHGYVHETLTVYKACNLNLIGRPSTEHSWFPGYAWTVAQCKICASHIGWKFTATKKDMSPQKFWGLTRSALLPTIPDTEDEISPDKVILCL
- Sequence (Q16531 whole entry partner): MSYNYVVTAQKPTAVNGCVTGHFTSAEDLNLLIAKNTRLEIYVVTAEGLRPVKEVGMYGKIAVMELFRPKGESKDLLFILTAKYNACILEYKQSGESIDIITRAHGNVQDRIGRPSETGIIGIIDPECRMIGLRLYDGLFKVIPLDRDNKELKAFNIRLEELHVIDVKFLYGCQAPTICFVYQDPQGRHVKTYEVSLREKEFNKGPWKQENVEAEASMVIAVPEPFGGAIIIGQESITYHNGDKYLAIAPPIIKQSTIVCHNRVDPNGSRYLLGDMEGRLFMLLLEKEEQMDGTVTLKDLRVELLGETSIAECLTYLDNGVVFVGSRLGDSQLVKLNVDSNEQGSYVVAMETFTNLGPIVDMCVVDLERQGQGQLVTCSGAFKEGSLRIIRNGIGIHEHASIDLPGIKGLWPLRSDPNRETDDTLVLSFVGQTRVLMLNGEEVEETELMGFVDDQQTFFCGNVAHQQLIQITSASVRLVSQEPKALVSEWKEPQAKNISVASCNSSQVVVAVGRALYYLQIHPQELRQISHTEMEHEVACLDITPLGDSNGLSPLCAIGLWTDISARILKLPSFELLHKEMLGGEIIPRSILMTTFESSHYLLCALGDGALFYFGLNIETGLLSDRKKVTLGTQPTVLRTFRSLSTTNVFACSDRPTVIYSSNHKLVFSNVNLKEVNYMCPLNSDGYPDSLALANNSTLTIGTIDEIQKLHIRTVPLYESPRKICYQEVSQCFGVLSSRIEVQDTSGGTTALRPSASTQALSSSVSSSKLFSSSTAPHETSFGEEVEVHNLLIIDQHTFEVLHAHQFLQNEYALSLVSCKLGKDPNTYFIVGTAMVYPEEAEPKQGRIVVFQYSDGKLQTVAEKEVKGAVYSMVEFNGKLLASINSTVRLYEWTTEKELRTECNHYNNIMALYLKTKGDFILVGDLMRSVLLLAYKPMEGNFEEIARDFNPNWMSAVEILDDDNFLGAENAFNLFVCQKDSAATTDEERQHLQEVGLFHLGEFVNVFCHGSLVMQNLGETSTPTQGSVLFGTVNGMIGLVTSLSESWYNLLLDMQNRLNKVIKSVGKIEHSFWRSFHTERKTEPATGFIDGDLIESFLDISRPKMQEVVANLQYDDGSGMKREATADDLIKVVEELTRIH
- method-notes: GSPT1 HiBiT degradation assay
- Format: cell-based
- run-conditions: HEK293 LgBiT GSPT1 HiBiT cells, 6 hours

{"columns": ["molecule", "DC50"],
 "data": [
  ["C=C(COC(=O)NCCc1ccc(Cl)cc1NC(=O)NCc1ccc2c(c1)CN(C1CCC(=O)NC1=O)C2=O)C(=O)N1CCN(c2nc(OC[C@@H]3CCCN3C)nc3c2CCN(c2cccc4cccc(Cl)c24)C3)C[C@@H]1CC#N (some centres unmarked) [Compound I-78]", "0.5 to 2.5 µM"],
  ["C=C(CN(C)c1cccc(NC(=O)NCc2ccc3c(c2)CN(C2CCC(=O)NC2=O)C3=O)c1)C(=O)N1CCN(c2nc(OC[C@@H]3CCCN3C)nc3c2CCN(c2cccc4cccc(Cl)c24)C3)C[C@@H]1CC#N (some centres unmarked) [Compound I-58]", "> 2.5 µM"],
  ["C=C(CN1C(=O)CCC(N2Cc3cc(CNC(=O)Nc4cccc(Cl)c4O)ccc3C2=O)C1=O)C(=O)N1CCN(c2nc(OC[C@@H]3CCCN3C)nc3c2CCN(c2cccc4cccc(Cl)c24)C3)C[C@@H]1CC#N (some centres unmarked) [Compound I-83]", "0.5 to 2.5 µM"],
  ["C=C(CN(C(=O)NCc1ccc2c(c1)CN(C1CCC(=O)NC1=O)C2=O)c1cc(Cl)cc(OC)c1)C(=O)N1CCC[C@@H](n2nc(-c3ccc(Oc4ccccc4)cc3)c3c(N)ncnc32)C1 (some centres unmarked) [Compound I-40]", "> 2.5 µM"],
  ["C=C(COc1c(Cl)cccc1NC(=O)NCc1ccc2c(c1)CN(C1CCC(=O)NC1=O)C2=O)C(=O)N[C@@H]1CN(c2nc(Nc3cn(C)nc3OC)c3ncn(C)c3n2)C[C@H]1F (some centres unmarked) [Compound I-69]", "0.05 to 0.5 µM"]
]}

====

- measured-on: KRAS G12C (Homo sapiens, UniProt P01116, G12C)
- method-notes: KRAS G12C nucleotide exchange assay (SOS1-mediated, HTRF)
- run-conditions: 1 hr pre-incubation
- Protocol: KRAS target engagement (IC50 determination) was performed using a KRAS G12C nucleotide exchange assay. […] Briefly, GST-tagged KRAS G12C (amino acids 2-169) was mixed with anti-GST Tb antibody (1.5× solution) and 10 μL was delivered to reaction wells. […] SOS1 mediated exchange of GDP to GTP-DY-647P was measured using HTRF (Ex/Em=(320-75/665-7.5; 615-8.5)) using an Envision Plate Reader (Perkin Elmer). […]
- Sequence (P01116 2-169 isoform P01116-2 G12C): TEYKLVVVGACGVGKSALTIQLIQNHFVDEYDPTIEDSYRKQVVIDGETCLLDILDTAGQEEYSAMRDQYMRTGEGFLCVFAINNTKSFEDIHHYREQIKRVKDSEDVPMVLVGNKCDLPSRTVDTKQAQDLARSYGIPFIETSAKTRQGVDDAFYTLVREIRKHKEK
compounds and their reported IC50

{"columns": ["compound", "IC50"],
 "data": [
  ["C=C(COc1ccccc1CNC(=O)NCc1ccc2c(c1)CN(C1CCC(=O)NC1=O)C2=O)C(=O)N1CCN(c2nc(OC[C@@H]3CCCN3C)nc3c2CCN(c2cccc4cccc(Cl)c24)C3)C[C@@H]1CC#N (some centres unmarked)", "< 100 nM"],
  ["C=C(COC(=O)NCCCc1ccc(Cl)cc1NC(=O)NCc1ccc2c(c1)CN(C1CCC(=O)NC1=O)C2=O)C(=O)N1CCN(c2nc(OC[C@@H]3CCCN3C)nc3c2CCN(c2cccc4cccc(Cl)c24)C3)C[C@@H]1CC#N (some centres unmarked)", "< 100 nM"],
  ["C=C(COc1cc(NC(=O)NCc2ccc3c(c2)CN(C2CCC(=O)NC2=O)C3=O)cc(OC)c1)C(=O)N1CCN(c2nc(OC[C@@H]3CCCN3C)nc3c2CCN(c2cccc4cccc(Cl)c24)C3)C[C@@H]1CC#N (some centres unmarked)", "< 100 nM"],
  ["C=C(COc1ccc(Cl)cc1NC(=O)NCc1ccc2c(c1)CN(C1CCC(=O)NC1=O)C2=O)C(=O)N1CC2(CC(n3nc(-c4ccc5c(cnn5C)c4)c(-c4c(Cl)c(C)cc5[nH]ncc45)c3C)C2)C1 (centres unmarked)", "100 to 5000 nM"],
  ["C=C(COc1c(CNC(=O)Nc2ccc(C)c(Cl)c2)ccc2c1CN(C1CCC(=O)NC1=O)C2=O)C(=O)N1CCN(c2nc(OC[C@@H]3CCCN3C)nc3c2CCN(c2cccc4cccc(Cl)c24)C3)C[C@@H]1CC#N (some centres unmarked)", "< 100 nM"],
  ["C=C(COC(=O)NCc1cc(Cl)cc(NC(=O)NCc2ccc3c(c2)CN(C2CCC(=O)NC2=O)C3=O)c1)C(=O)N1CCN(c2nc(OC[C@@H]3CCCN3C)nc3c2CCN(c2cccc4cccc(Cl)c24)C3)C[C@@H]1CC#N (some centres unmarked)", "< 100 nM"],
  ["C=C(COc1cc(Cl)c(OC)cc1NC(=O)NCc1ccc2c(c1)CN(C1CCC(=O)NC1=O)C2=O)C(=O)N1CCN(c2nc(OC[C@@H]3CCCN3C)nc3c2CCN(c2cccc4cccc(Cl)c24)C3)C[C@@H]1CC#N (some centres unmarked)", "< 100 nM"],
  ["C=C(COc1cc(Cl)c(OC)cc1NC(=O)NCc1ccc2c(c1)CN(C1CCC(=O)NC1=O)C2=O)C(=O)N1CC2(CC(n3nc(-c4ccc5c(cnn5C)c4)c(-c4c(Cl)c(C)cc5[nH]ncc45)c3C)C2)C1 (centres unmarked)", "100 to 5000 nM"],
  ["C=C(COc1cc([N+](=O)[O-])c(Cl)cc1NC(=O)NCc1ccc2c(c1)CN(C1CCC(=O)NC1=O)C2=O)C(=O)N1CCN(c2nc(OC[C@@H]3CCCN3C)nc3c2CCN(c2cccc4cccc(Cl)c24)C3)C[C@@H]1CC#N (some centres unmarked)", "100 to 5000 nM"],
  ["C=C(COc1cc(NC(=O)NCc2ccc3c(c2)CN(C2CCC(=O)NC2=O)C3=O)cc(C(F)(F)F)c1)C(=O)N1CCN(c2nc(OC[C@@H]3CCCN3C)nc3c2CCN(c2cccc4cccc(Cl)c24)C3)C[C@@H]1CC#N (some centres unmarked)", "< 100 nM"],
  ["C=C(COc1cc(Cl)cc(NC(=O)NCc2ccc3c(c2)CN(C2CCC(=O)NC2=O)C3=O)c1)C(=O)N1CCN(c2nc(OC[C@@H]3CCCN3C)nc3c2CCN(c2cccc4cccc(Cl)c24)C3)C[C@@H]1CC#N (some centres unmarked)", "< 100 nM"],
  ["C=C(COc1cc(Cl)cc(NC(=O)NCc2ccc3c(c2F)CN(C2CCC(=O)NC2=O)C3=O)c1)C(=O)N1CCN(c2nc(OC[C@@H]3CCCN3C)nc3c2CCN(c2cccc4cccc(Cl)c24)C3)C[C@@H]1CC#N (some centres unmarked)", "< 100 nM"],
  ["C=C(CN1C(=O)CCC(N2Cc3cc(CNC(=O)Nc4cccc(Cl)c4O)ccc3C2=O)C1=O)C(=O)N1CCN(c2nc(OC[C@@H]3CCCN3C)nc3c2CCN(c2cccc4cccc(Cl)c24)C3)C[C@@H]1CC#N (some centres unmarked)", "100 to 5000 nM"],
  ["C=C(COc1ccc(Cl)cc1NC(=O)NCc1ccc2c(c1)CN(C1CCC(=O)NC1=O)C2=O)C(=O)N1CCN(c2nc(OC[C@@H]3CCCN3C)nc3c2CCN(c2cccc4cccc(Cl)c24)C3)C[C@@H]1CC#N (some centres unmarked)", "< 100 nM"],
  ["C=C(COc1cc(NC(=O)NCc2ccc3c(c2F)CN(C2CCC(=O)NC2=O)C3=O)cc(C(F)(F)F)c1)C(=O)N1CC2(CC(n3nc(-c4ccc5c(cnn5C)c4)c(-c4c(Cl)c(C)cc5[nH]ncc45)c3C)C2)C1 (centres unmarked)", "100 to 5000 nM"],
  ["C=C(COc1cc(-c2ccccn2)ccc1CNc1nc(N[C@H](CC)CO)nc2c1ncn2C(C)C)C(=O)N1CCN(c2nc(OC[C@@H]3CCCN3C)nc3c2CCN(c2cccc4cccc(Cl)c24)C3)C[C@@H]1CC#N", "< 100 nM"],
  ["C=C(COc1cc(F)c(F)cc1NC(=O)NCc1ccc2c(c1)CN(C1CCC(=O)NC1=O)C2=O)C(=O)N1CCN(c2nc(OC[C@@H]3CCCN3C)nc3c2CCN(c2cccc4cccc(Cl)c24)C3)C[C@@H]1CC#N (some centres unmarked)", "< 100 nM"]
]}
